Reference source for all entries: patent US20230122364A1

- measured_target: prefusion conformation-stabilized SARS-CoV-2 spike ectodomain (S2Pecto) protein (SARS-CoV-2, UniProt P0DTC2 14-1213; P10104 458-484)
- assay_text: competition ELISA on coated S2Pecto; hACE2-FLAG binding inhibited
Exercise: for every item that follows, state its recorded IC50.

*Q* If you can, please state the reported IC50 value of COV2-2103 (antibody, V domains shown) VH: EVQLVESGGGLVQPGGSLRLSCAASGFTFSRHWMTWVRQAPGKGLEWVANIKQDGSEKYYVDSVKGRLTISRDNAKNSLYLQMNSLRAEDTAVYYCARLGFYYGGADYWGQGTLVTVSS VL: NFMLTQPHSVSESPGKTVTISCTGSSGSIASNYVQWYQQRPGSAPTTVISEDNQRPSGVPDRFSGSIDSSSNSASLTISGLKTEDEADYYCQSYDGINRAWVFGGGTKLTVL .
*A* 0.079 µg/mL

*Q* If you can, please state the reported IC50 value of COV2-2113 (antibody, V domains shown) VH: EVQLVESGGGLIQPGGSLRLSCAASEVTVSSNYMSWVRQAPGKGLEWVSLIYSGGTTYYADSVKGRFTISRDNSKNTLYLQMNSLRAEDTAVYYCARDFLRWHDLWGQGTLVTVSS VL: DIQMTQSPSSLSASVGDRVTITCQASQDINNYLNWYQQKPGKAPKLLIYDASNLETGVPLRFSGSGSGTDFIFTISSLQPEDIATYYCQQYDNLPPVFGGGTKVEIK .
*A* 0.06 µg/mL

*Q* If you can, please state the reported IC50 value of COV2-2082 (antibody, V domains shown) VH: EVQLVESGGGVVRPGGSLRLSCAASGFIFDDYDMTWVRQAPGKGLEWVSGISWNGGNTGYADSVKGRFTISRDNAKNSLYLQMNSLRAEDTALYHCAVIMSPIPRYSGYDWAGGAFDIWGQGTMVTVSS VL: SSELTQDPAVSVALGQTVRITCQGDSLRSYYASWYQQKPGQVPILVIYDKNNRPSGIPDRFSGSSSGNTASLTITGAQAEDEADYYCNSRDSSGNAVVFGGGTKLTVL .
*A* 0.043 µg/mL

*Q* If you can, please state the reported IC50 value of COV2-2068 (antibody, V domains shown) VH: EVQLVESGGGLVQPGGSLRLSCAASGFTVSSNYMSWVRQAPGKGLEWVSVIYPGGSAFYADSVKGRFTISRHNSNNTLCLQMNSLRTEDTAVYYCARSYDILTGYRDAFDIWGQGTMVTVSS VL: QSVLTQPPSVSGAPGQRVTISCTGSSSNIGSGSDVHWYQQLPGTAPKLLIYGNTNRPSGVPDRFSGSKSGTSASLAITGLQAEDEADYYCQSYDSRLSGFVVFGGGTKLTVL .
*A* 0.166 µg/mL

*Q* If you can, please state the reported IC50 value of COV2-2098 (antibody, V domains shown) VH: EVQLLESGGGLIQPGGSLRLSCAASGFTFSNYAMSWVRQAPGKGLEWVSGIISTSGGATYNADSVRGRFTTSRDNSKNILYLQMNSLRGEDTAVYYCVKGLFDWFPLWGQGTMVTVSS VL: DIVMTQSPATLSVSPGERAILSCRASQSVRSNLAWYQQKPGQAPRLLISGASTRATAIPARFSGSGSGTEFTLTITSLQSEDCAVYYCHQYNNWPQTFGQGTKVEIK .
*A* 0.048 µg/mL
